- target-or-test-system: hMAO-A (Homo sapiens, UniProt P21397)
- Construct: purchased Sigma Aldrich; host or cells: BTI-TN-5B1-4 baculovirus-infected insect cells
- Sequence (P21397 whole entry): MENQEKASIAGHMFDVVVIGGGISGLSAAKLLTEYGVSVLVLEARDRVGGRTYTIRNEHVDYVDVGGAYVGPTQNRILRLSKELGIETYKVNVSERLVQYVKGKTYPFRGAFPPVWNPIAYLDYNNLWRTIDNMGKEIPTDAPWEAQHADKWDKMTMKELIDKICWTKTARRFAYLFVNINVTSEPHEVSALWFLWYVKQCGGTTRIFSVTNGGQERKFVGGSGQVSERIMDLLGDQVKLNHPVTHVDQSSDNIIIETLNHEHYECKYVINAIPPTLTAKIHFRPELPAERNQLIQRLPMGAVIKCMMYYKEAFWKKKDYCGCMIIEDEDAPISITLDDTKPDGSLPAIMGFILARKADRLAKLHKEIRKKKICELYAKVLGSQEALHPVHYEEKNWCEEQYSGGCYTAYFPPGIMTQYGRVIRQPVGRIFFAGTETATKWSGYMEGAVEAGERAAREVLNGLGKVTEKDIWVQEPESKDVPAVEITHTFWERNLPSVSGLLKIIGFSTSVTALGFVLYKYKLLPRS
- method-summary: Inhibition of hMAO-A, fluorimetric Amplex Red assay
- Type: biochemical
- measurement-conditions: residual activity at 10 µM; Table 3; read-out: hMAO-A RA (%)
reported-endpoint: remaining activity at 10 µM

Q: Fill blank: measured remaining activity at 10 µM of the molecule `Nc1ccc(NC(=O)Nc2cc(C(F)(F)F)ccc2-n2cncn2)cc1` is ____.
A: 100%

Q: `O=C(Nc1cc(C(F)(F)F)ccc1-n1cncn1)Nc1ccc(OCCN2CCOCC2)c2ccccc12` ?
A: 79%

Q: `CNC(=O)c1cc(Oc2ccc(NC(=O)Nc3cc(C(F)(F)F)ccc3-n3cncn3)cc2)cc[n+]1[O-]` ?
A: 89%

Q: `CNC(=O)c1cc(Oc2ccc(NC(=O)Nc3ccc(Cl)c(C(F)(F)F)c3)cc2)ccn1` ?
A: 86%

====

- target-or-test-system: MurC (Escherichia coli)
- Sequence (P17952 whole entry): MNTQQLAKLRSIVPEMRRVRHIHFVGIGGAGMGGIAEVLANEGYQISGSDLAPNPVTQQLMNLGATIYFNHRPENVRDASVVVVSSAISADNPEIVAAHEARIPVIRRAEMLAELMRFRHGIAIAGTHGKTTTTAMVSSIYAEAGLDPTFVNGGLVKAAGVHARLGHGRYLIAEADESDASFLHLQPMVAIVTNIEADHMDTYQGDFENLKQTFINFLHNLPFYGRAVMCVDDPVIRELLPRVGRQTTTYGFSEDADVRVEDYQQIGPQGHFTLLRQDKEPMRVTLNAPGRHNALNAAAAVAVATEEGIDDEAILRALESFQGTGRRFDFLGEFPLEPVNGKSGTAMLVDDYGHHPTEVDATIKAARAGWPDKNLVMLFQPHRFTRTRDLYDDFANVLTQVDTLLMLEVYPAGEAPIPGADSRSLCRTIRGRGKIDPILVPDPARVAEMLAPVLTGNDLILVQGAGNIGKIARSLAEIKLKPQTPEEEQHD
- method-summary: Inhibition of MurC, colorimetric malachite green method
- Type: biochemical, bacterial
- measurement-conditions: 0.25 h, read-out: MurC (RA [%])
// map remaining activity at 50 µM onto a label; ranges 1 = under 70%, 2 = from 70% up to 90%, 3 = 90% and over

Reference set (3 entries):
{"columns": ["smiles-code", "target-or-test-system", "cat"],
 "data": [
  ["CCCCCCN(Cc1ccc(C#Cc2ccc(CCCC)cc2)cc1)C(=O)c1ccc(O)c(C(=O)O)c1", "MurC (Escherichia coli)", 3],
  ["C1=C(c2ccccc2)CCN(CCCCc2c[nH]c3ccccc23)C1", "MurC (Escherichia coli)", 2],
  ["CCCCCCN(Cc1ccc(C#Cc2ccc(CCCC)cc2)cc1)c1ccc(O)c(C(=O)O)c1", "MurC (Escherichia coli)", 2]
]}

Q: Band assignment needed for `O=C(OC[C@H]1CCCN1c1ccnc2ncnn12)c1ccc(Oc2ccccc2)nc1` please.
A: 3

Q: `CCCCc1nc2ccn(CC(=O)N3CCCCC3)c(=O)c2n1Cc1ccc(-c2ccccc2S(=O)(=O)NC(=O)OCc2ccccc2)cc1F` ?
A: 1

Q: `CCCCCCN(Cc1ccc(C#Cc2ccc(CCCC)cc2)cc1)c1ccc(F)c(C(=O)O)c1` ?
A: 2

Q: `O=C(Nc1ccc(Oc2ccncc2)cc1)Nc1cc(C(F)(F)F)ccc1-n1cncn1` ?
A: 3

Q: `CCCCc1nc2ccn(Cc3ccccc3)c(=O)c2n1Cc1ccc(-c2ccccc2-c2nnn[nH]2)cc1` ?
A: 1

====

remaining activity at 10 µM values by entry
- target-or-test-system: UniProt:P06276
- method-summary: biochemical
- Format: biochemical
- measurement-conditions: residual activity at 10 µM; Table 4; read-out: hBChE RA (%)
Reply numerically in %, unit not repeated.

Worked set:
{"columns": ["smiles-code", "quantity-unit", "remaining activity at 10 µM"],
 "data": [
  ["CC(C)c1ccc2[nH]cc(CCCCN3CC=C(c4ccccc4)CC3)c2c1", "%", 0],
  ["OCC1=C(c2ccc(F)cc2)CCN(CCCCc2c[nH]c3ccccc23)C1", "%", 7],
  ["Oc1ccc2c(CCCCN3CC=C(c4ccccc4)CC3)c[nH]c2c1", "%", 3]
]}

Q: Fill blank: measured remaining activity at 10 µM of the molecule `C1=C(c2cccc3ccccc23)CCN(CCCCc2c[nH]c3ccccc23)C1` is ____.
A: 6

Q: `C1=C(c2ccccc2)CCN(CCCCc2c[nH]c3ccccc23)C1` ?
A: 0

Q: `COC(=O)CNC(=O)c1ccc2[nH]cc(CCCCN3CC=C(c4ccccc4)CC3)c2c1` ?
A: 4

Q: `COc1ccc2[nH]cc(CCCCN3CCc4c([nH]c5ccc(OC)cc45)C3)c2c1` ?
A: 23

Q: `O=C(O)c1cccc2[nH]cc(CCCCN3CC=C(c4ccccc4)CC3)c12` ?
A: 49

Q: `Fc1ccc2[nH]cc(CCCCN3CC=C(c4ccccc4)CC3)c2c1` ?
A: 0

====

- target-or-test-system: murine acetylcholinesterase (mAChE) (Mus musculus, UniProt P21836)
- Sequence (P21836 32-614): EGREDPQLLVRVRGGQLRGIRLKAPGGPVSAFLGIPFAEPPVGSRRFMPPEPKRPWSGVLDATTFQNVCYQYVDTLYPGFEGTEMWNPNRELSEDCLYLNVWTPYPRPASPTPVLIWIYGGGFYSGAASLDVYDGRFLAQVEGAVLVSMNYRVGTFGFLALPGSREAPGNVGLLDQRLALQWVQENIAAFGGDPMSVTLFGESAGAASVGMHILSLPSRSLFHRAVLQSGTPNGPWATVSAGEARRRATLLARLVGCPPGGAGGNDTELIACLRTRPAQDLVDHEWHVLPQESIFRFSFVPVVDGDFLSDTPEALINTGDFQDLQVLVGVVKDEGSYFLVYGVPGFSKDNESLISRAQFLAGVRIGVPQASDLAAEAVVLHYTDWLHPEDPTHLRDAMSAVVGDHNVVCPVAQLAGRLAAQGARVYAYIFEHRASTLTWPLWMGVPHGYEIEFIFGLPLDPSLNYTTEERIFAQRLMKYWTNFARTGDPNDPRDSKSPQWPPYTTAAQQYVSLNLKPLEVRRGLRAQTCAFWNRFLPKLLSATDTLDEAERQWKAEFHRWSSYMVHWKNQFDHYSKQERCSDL
- method-summary: biochemical
- Format: biochemical
pIC50 values by entry
// returns pIC50 (minus log10 of molar concentration), number only

Worked set:
{"columns": ["smiles-code", "target-or-test-system", "pIC50"],
 "data": [
  ["CCCCCCN(Cc1ccc(C#Cc2ccc(CCCC)cc2)cc1)c1ccc(F)c(C(=O)OC)c1", "murine acetylcholinesterase (mAChE) (Mus musculus, UniProt P21836)", 6.17],
  ["COC(=O)c1cc(N(Cc2ccc(C#Cc3ccc(C(C)(C)C)cc3)cc2)CC2CC2)ccc1F", "murine acetylcholinesterase (mAChE) (Mus musculus, UniProt P21836)", 5.74],
  ["CCCCc1ccc(C#Cc2ccc(CN(CC3CC3)c3ccc(O)c(C(=O)O)c3)cc2)cc1", "murine acetylcholinesterase (mAChE) (Mus musculus, UniProt P21836)", 5.96]
]}

Q: Fill blank: measured pIC50 of the molecule `CCCCc1ccc(C#Cc2ccc(CN(C(=O)CC(C)(C)C)c3ccc(F)c(C(=O)O)c3)cc2)cc1` is ____.
A: 5.92

Q: `CC(C)(C)CCN(Cc1ccc(C#Cc2ccc(F)cc2)cc1)C(=O)c1ccc(O)c(C(=O)O)c1` ?
A: 5.32

Q: `CCCCCCN(Cc1ccc(C#Cc2ccc(C(C)(C)C)cc2)cc1)c1ccc(F)c(C(=O)O)c1` ?
A: 6.43

====

- target-or-test-system: human butyrylcholinesterase (hBChE) (Homo sapiens, UniProt P06276)
- Sequence (P06276 29-602): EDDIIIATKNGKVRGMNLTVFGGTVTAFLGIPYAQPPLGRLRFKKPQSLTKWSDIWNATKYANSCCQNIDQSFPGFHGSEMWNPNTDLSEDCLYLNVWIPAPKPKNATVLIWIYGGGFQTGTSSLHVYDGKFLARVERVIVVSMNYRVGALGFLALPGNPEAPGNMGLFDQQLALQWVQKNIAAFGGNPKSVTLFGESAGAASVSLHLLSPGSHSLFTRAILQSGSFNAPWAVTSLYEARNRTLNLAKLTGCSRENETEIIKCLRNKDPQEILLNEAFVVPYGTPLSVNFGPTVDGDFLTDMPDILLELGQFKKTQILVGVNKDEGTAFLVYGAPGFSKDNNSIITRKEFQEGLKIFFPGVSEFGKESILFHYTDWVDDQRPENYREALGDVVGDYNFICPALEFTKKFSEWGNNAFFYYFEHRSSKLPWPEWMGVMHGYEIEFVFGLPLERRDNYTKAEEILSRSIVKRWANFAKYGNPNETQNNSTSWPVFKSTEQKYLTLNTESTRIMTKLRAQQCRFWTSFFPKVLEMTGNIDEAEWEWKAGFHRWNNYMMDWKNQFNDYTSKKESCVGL
- method-summary: biochemical
- Format: biochemical
- Method: Enzyme solutions were prepared by diluting the concentrated enzyme stock solutions (4.6 mg/mL in 10 mM MES-NaOH buffer, pH 6.5) in a sodium phosphate-buffered solution (0.1 M, pH 8.0). […] The final organic solvent (DMSO) content was always 1% (v/v). Reactions were initiated by adding the substrate to the enzyme and inhibitor, which were preincubated for 5 min. […] The initial velocity (v) was calculated from the slope of the linear trend obtained, with each measurement performed in triplicate. […]
reported-endpoint: hBChE RA (%)
Reply numerically in %, unit not repeated.

{"columns": ["smiles-code", "target-or-test-system", "quantity-unit", "reported"],
 "data": [
  ["CCCCc1ccc(C#Cc2ccc(CN(C(=O)CC(C)(C)C)c3ccc(F)c(C(=O)O)c3)cc2)cc1", "human butyrylcholinesterase (hBChE) (Homo sapiens, UniProt P06276)", "%", 100],
  ["CC(C)(C)CCN(Cc1ccc(C#Cc2ccc(F)cc2)cc1)C(=O)c1ccc(C(=O)O)cc1", "human butyrylcholinesterase (hBChE) (Homo sapiens, UniProt P06276)", "%", 100],
  ["COC(=O)c1cc(N(Cc2ccc(C#Cc3ccc(C(C)(C)C)cc3)cc2)CC2CC2)ccc1F", "human butyrylcholinesterase (hBChE) (Homo sapiens, UniProt P06276)", "%", 80]
]}

# next compound below
Q: Find the measured hBChE RA (%): item `CCCCc1ccc(C#Cc2ccc(CN(CC3CC3)c3ccc(O)c(C(=O)O)c3)cc2)cc1` , target or system human butyrylcholinesterase (hBChE) (Homo sapiens, UniProt P06276).
A: 16

====

- target-or-test-system: human butyrylcholinesterase (hBChE) (Homo sapiens, UniProt P06276)
- method-summary: biochemical
- Type: biochemical
- measurement-conditions: residual activity at 10 µM; Table 4; read-out: hBChE RA (%)
remaining activity at 10 µM values by entry
Reply numerically in %, unit not repeated.

{"columns": ["smiles-code", "reported"],
 "data": [
  ["N#Cc1ccc2[nH]cc(CCCCN3CC=C(c4ccc5c(c4)OCC5)CC3)c2c1", 31]
]}

Q: Fill blank: measured remaining activity at 10 µM of the compound `Oc1ccc2[nH]cc(CCCCN3CC=C(c4ccccc4)CC3)c2c1` is ____.
A: 0

Q: `O=C(O)c1ccc2[nH]cc(CCCCN3CCc4c(c(=O)oc5ccccc45)C3)c2c1` ?
A: 97
